Where do these numbers come from? They come from the Immune Epitope Database (IEDB).

Molecular target: HLA-C*05:01
Test: IEDB peptide-MHC binding, purified MHC/direct/fluorescence; filed as Kd, often an IC50 or EC50 that approximates it; bounds were set here for any values at or beyond the usual limits of such assays
Settings: source organism: Escherichia coli O157:H7 str. EDL933
QUANTITY_MEASURED: pKd
# reply with the number alone; pKd is -log10 of concentration in mol/L

Prompt: Data request, read-out pKd, for "YVLNGYTEF"
Response: 7.43

---

Molecular target: HLA-A*03:01
Test: IEDB peptide-MHC binding, purified MHC/direct/fluorescence; filed as Kd, often an IC50 or EC50 that approximates it; bounds were set here for any values at or beyond the usual limits of such assays
Conditions: source organism: Mycobacterium tuberculosis str. Haarlem
QUANTITY_MEASURED: Kd

Prompt: What value of Kd has been recorded for this entry: "RVACRDVEV"
Response: ≥ 20 µM
